biological target: T1, recombinant human PCSK9-His protein (Immunogen A) (human, UniProt Q8NBP7 31-692, limits assumed, biotinylated in the ELISA assays); assay: ELISA; antibody 6.67 nM
T1 construct: also called hPCSK9-His; His-tagged hPCSK9; not shown: His tag
outcome_measure: OD450 nm (OD450 nm)
Write the answer as a number in OD450 nm, unit excluded.

The binder listed as 152G2F7, fully human anti-PCSK9 antibody (antibody, human IgG1, V domains shown) VH: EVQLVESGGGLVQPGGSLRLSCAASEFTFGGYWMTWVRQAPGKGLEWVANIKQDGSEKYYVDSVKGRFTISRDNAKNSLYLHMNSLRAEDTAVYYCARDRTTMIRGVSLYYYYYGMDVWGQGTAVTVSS VL: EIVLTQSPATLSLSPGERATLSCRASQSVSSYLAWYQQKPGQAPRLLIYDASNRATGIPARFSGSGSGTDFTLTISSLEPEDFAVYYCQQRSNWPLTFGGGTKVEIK has a reported OD450 nm of 3.12

The binder listed as 74C10A8, fully human anti-PCSK9 antibody (antibody, human IgG1, V domains shown) VH: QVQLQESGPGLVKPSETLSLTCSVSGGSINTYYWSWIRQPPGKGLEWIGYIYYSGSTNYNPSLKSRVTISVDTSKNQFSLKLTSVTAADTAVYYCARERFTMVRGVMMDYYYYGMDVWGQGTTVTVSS VL: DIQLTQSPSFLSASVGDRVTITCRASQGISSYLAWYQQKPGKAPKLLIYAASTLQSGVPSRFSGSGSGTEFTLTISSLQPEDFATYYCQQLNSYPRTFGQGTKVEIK has a reported OD450 nm of 3.04

The binder listed as 139G1C5, fully human anti-PCSK9 antibody (antibody, human IgG1, V domains shown) VH: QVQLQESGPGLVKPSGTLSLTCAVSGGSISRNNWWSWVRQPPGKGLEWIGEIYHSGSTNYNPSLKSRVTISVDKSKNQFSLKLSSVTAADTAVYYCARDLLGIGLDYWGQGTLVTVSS VL: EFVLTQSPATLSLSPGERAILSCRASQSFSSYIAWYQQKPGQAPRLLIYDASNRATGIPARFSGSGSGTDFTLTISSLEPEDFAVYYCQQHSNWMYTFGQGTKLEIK has a reported OD450 nm of 3.06

The binder listed as 76A1B11, fully human anti-PCSK9 antibody (antibody, human IgG1, V domains shown) VH: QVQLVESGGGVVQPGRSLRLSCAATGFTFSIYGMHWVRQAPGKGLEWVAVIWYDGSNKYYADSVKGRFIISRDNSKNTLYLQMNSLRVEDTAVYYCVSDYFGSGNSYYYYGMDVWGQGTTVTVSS VL: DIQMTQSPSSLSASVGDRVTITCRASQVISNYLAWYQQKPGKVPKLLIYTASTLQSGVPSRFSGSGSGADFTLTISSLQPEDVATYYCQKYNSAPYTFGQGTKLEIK has a reported OD450 nm of 2.97
